test system: MOLT-4 leukemia; assay: NCI-60 one-dose screen, 48 h (100 = growth as untreated, 0 = no growth, -100 = all killed); details: 10 µM unless noted
This is part of a sample that, as a whole, favours compounds with a hit. Of some 83,000 tested, about 20% had one in any assay. Calls of active or inactive are those of the source. How the source made its calls: active means growth percent below 10; inactive means the rest.
Measured growth of individual entries

| compound | growth |
| --- | --- |
| N#CC1=C(N)Oc2nc[nH]c(=O)c2C1c1cccs1 (stereo not given) | 94.3% (inactive) |
| COS(=O)(=O)CCN(CCOS(C)(=O)=O)S(C)(=O)=O | 90.5% (inactive) |
| CCN(CC)CCCC(C)Nc1cnc(C(=O)Nc2cc(C)cc3cccnc23)cn1 (stereo not given) | 46.5% (inactive) |
| COc1cc(C(=O)/C=C/c2cn(-c3ccccc3)nc2-c2cccc(Nc3ccnc4cc(Cl)ccc34)c2)cc(OC)c1OC | 63.3% (inactive) |
| C[C@@H]1C[C@H](N)C[C@H](c2ccncc2NC(=O)c2ccc(F)c(-c3c(F)cccc3F)n2)C1 | 9.29% (active) |
| COCCn1c(Nc2ccc(C(=O)NO)cc2)nc2ccccc21 | 33.4% (inactive) |
| Cn1nc(C(F)(F)F)cc1-c1cc(Cl)c(OCc2ccc(Cl)cc2)c(-c2ccc(Cl)c(C(F)(F)F)c2)c1O | -14.2% (active) |
| O=C(/C=C/c1ccccc1)C(Br)C(Br)c1ccccc1 (stereo not given) | -25% (active) |

Answer with the recorded growth for the compound listed here: Cc1nn(-c2ccc(Cl)cc2)c(=O)n1CCN1CCOCC1
90.9% (inactive)

Answer with the recorded growth for the compound listed here: COc1ccc([C@@H]2[C@@H](Oc3ccccc3)C(=O)N2c2cc(OC)c(OC)c(OC)c2)cc1F
6.79% (active)

====

test system: A498 renal; test: NCI-60 one-dose screen, 48 h (100 = growth as untreated, 0 = no growth, -100 = all killed); settings: 10 µM unless noted
Compounds without any hit were thinned out: in the full panel of roughly 83,000, 20% have a hit. The source made the active and inactive calls. The calls were made as follows: active = growth percent below 10; inactive = the rest.
Measured growth of individual entries

// worked examples, growth included
| compound | value-measured |
| --- | --- |
| O=C(/C=C/c1ccccc1)C(Br)C(Br)c1ccccc1 (stereo not given) | 85.1% (inactive) |
| Nc1ccc(C(OC(=O)c2cc3ccccc3c(Cc3c(O)c(C(=O)OC(c4ccc(N)cc4)(c4ccc(N)cc4)c4ccc(N)cc4)cc4ccccc34)c2O)(c2ccc(N)cc2)c2ccc(N)cc2)cc1 | -3.31% (active) |
| COCCn1c(Nc2ccc(C(=O)NO)cc2)nc2ccccc21 | 84.2% (inactive) |
| CCOC(=O)c1ccc(NC(=O)NC2=NCCS2)cc1 | -7.64% (active) |
| Cc1ccc(Nc2nc(NCCO)c3ccccc3n2)cc1C | -11.9% (active) |
| COc1ccc(NC(=O)C2c3ccccc3C(=O)N(CC(C)C)C2c2cccs2)cc1 (stereo not given) | 86.7% (inactive) |
| Nc1nc2c(c3ncccc13)C(c1ccccc1)Cc1ncccc1-2 (stereo not given) | 78.2% (inactive) |
| COC(=O)c1cc2oc(/C=N/NC(=O)c3cc4oc(-c5cccc(C(F)(F)F)c5)cc4[nH]3)cc2n1Cc1ccccc1 | 85.8% (inactive) |
| CC1=NOCC(=O)N1 | 111% (inactive) |
| CCCCOc1ncnc2nc[nH]c12 | 97% (inactive) |

Answer with the recorded growth for the compound listed here: COc1ccc([C@@H]2[C@@H](Oc3ccccc3)C(=O)N2c2cc(OC)c(OC)c(OC)c2)cc1F
-9.03% (active)

====

Measured growth of individual entries
test system: TK-10 renal; assay: NCI-60 one-dose screen, 48 h (100 = growth as untreated, 0 = no growth, -100 = all killed); settings: 10 µM unless noted
Compounds without any hit were thinned out: in the full panel of roughly 83,000, 20% have a hit.
State just the number; it will be interpreted in %.

| compound | test-system | value-measured |
| --- | --- | --- |
| Cc1cc(C)c2c(n1)sc1c(Nc3ccc(OCc4ccccc4)cc3)ncnc12 | TK-10 renal | 92.4 |
| COc1ccc2[nH]c(C(=O)OCc3ccc4cccc(O)c4n3)cc2c1 | TK-10 renal | -89.2 |

Provide growth, recorded with TK-10 renal, of O=C(/C=C/c1cn(-c2ccccc2)nc1-c1cccc(Nc2ccnc3cc(Cl)ccc23)c1)c1ccc2c(c1)OCO2
123

Provide growth, recorded with TK-10 renal, of COCCn1c(Nc2ccc(C(=O)NO)cc2)nc2ccccc21
26.7

Provide growth, recorded with TK-10 renal, of COCCOCCOCc1n(Cc2ccc3ccccc3n2)c2ccccc2[n+]1Cc1ccc2ccccc2c1
-8.46

Provide growth, recorded with TK-10 renal, of CC1C2CCC(C2)C1COCCOCCO (centres undefined)
109

Provide growth, recorded with TK-10 renal, of CN(C)c1ccc(Nc2c3ccccc3nc3ccccc23)cc1
34.1

====

test system: SK-MEL-2 melanoma; experiment: NCI-60 one-dose screen, 48 h (100 = growth as untreated, 0 = no growth, -100 = all killed); conditions: 10 µM unless noted
About 83,000 compounds went through this panel and 20% of them were active in at least one assay; those are over-represented in the sample as a whole.
Measured growth of individual entries
State just the number; it will be interpreted in %.

// worked examples, growth included
| molecular-string | growth (%) |
| --- | --- |
| Oc1[nH]c2ccc(Cl)cc2c1/C=c1/ccc2c(c1)N=C(c1ccc(F)cc1)N=2 | 92.3 |
| C=CC[C@]1(O)CC[C@H]2[C@@H]3CCc4cc(O)ccc4[C@H]3CC[C@@]21C | 90.6 |
| O=c1c2sc3ncc(Cl)cc3c2nnn1-c1cccc(Cl)c1 | 92.9 |
| Clc1ccc2c(c1)-c1ccccc1C1=NCCN12 | -0.581 |

Answer with the recorded growth for the molecule listed here: CCNC(=S)N(Cc1ccccc1)Cc1ccccc1
98.6

Answer with the recorded growth for the molecule listed here: COc1cc2c(cc1C)NC(=O)/C2=C\c1c[nH]c2ccccc12
76.4

====

tested on: MDA-MB-231 breast; test: NCI-60 one-dose screen, 48 h; settings: 10 µM unless noted
The panel holds about 83,000 compounds, 20% with a hit somewhere; the sample as a whole holds those more often. Active and inactive are the calls of the source. The calls were made as follows: active = growth percent below 10; inactive = the rest.
// allowed return values: active, inactive

Before answering, review these 3 worked examples.
| compound | class |
| --- | --- |
| O=C(Nc1ccccc1)C(CCCCN1C(=O)c2ccccc2C1=O)N1C(=O)c2ccccc2C1=O (centres undefined) | inactive |
| Nc1ccc(C(OC(=O)c2cc3ccccc3c(Cc3c(O)c(C(=O)OC(c4ccc(N)cc4)(c4ccc(N)cc4)c4ccc(N)cc4)cc4ccccc34)c2O)(c2ccc(N)cc2)c2ccc(N)cc2)cc1 | active |
| NS(=O)(=O)c1ccc(N2N=C(c3ccc(Br)cc3)CC2c2cn(-c3ccccc3)nc2-c2ccc(Cl)cc2)cc1 (centres undefined) | inactive |

Next:
I would be grateful if you could indicate the recorded call for COc1cc(NC(C)CCCN)c2ncccc2c1Oc1ccc(Cl)cc1 (centres undefined) .
inactive

====

system: CAKI-1 renal; assay: NCI-60 one-dose screen, 48 h (100 = growth as untreated, 0 = no growth, -100 = all killed); settings: 10 µM unless noted
This is part of a sample that, as a whole, favours compounds with a hit. Of some 83,000 tested, about 20% had one in any assay.
Could you label it Yes if measured growth is 90% or higher, and No otherwise?

Before answering, review these 8 worked examples.
| molecule | class |
| --- | --- |
| COc1ccc(NC(=O)/C=C/c2ccc(NC(=O)N3CCCC3)cc2)cn1 | Yes |
| CN1CCN(Cc2ccc(NC(=O)c3ccc(C#N)c(C#Cc4cnc(N)c5ncccc45)c3)cc2C(F)(F)F)CC1 | Yes |
| O=C(Nc1ccc(OS(=O)(=O)c2ccc(F)cc2)cc1)C12CC3CC(CC(C3)C1)C2 | No |
| CCCNC(=S)N/N=C(\C)c1ccccn1 | No |
| Cc1ccc(N2C3c4ccccc4N(S(=O)(=O)c4ccc(C)cc4)C2c2ccccc2N3S(=O)(=O)c2ccc(C)cc2)cc1 | Yes |
| CC(C)CC(NC(=O)OCC1c2ccccc2-c2ccccc21)C(=O)O (centres undefined) | No |
| CCN(CC)C(Cl)=Nc1ccc(Cl)cc1 | Yes |
| COc1cc(/C=C/C(=O)c2c(C)nc3ccccc3c2C)ccc1OCCCOc1cc2c(cc1OC)C(=O)N1CCC[C@H]1C=N2 | No |

Next:
API: above_or_equal(metric=growth, cutoff=90%) for item COc1ccc(/C(=C\c2ccc3c(c2)OCO3)C(=O)Nc2nc3ccc(F)cc3s2)cc1OC
No

====

test system: NCI-H23 lung; assay: NCI-60 one-dose screen, 48 h; conditions: 10 µM unless noted
This is part of a sample that, as a whole, favours compounds with a hit. Of some 83,000 tested, about 20% had one in any assay. Activity calls are given as the source filed them. Rule for the calls: active = growth percent below 10; inactive = the rest.
// allowed return values: YES for active, NO for inactive

Before answering, review these 8 worked examples.
| molecule | test-system | class |
| --- | --- | --- |
| COc1ccc(Br)c2ccccc12 | NCI-H23 lung | NO |
| CC(=O)N[C@@H](CCC(N)=O)C(=O)O | NCI-H23 lung | NO |
| C#CC[C@@H]1C[C@]2(C)[C@H]3CC[C@@H]4[C@H]5C(C(=C)C)CC[C@]5(C(=O)NCCCCCCCCN)CC[C@@]4(C)[C@]3(C)CC[C@H]2C(C)(C)[C@H]1OC(C)=O (some centres undefined) | NCI-H23 lung | NO |
| OC(c1cc2cc(Cl)ccc2c2cc(C(F)(F)F)ccc12)C1CCCCN1 (centres undefined) | NCI-H23 lung | YES |
| C/C=C(\C)C(C(=O)NC1CCCCC1)N(C(=O)C1CCc2cc(F)ccc2O1)c1ccc([N+](=O)[O-])cc1 (centres undefined) | NCI-H23 lung | NO |
| C=CCOc1c(Br)cc(Br)cc1Br | NCI-H23 lung | NO |
| CCCOC(=O)C1c2cc3c(cc2CC(C)C1C(=O)OCCC)OCO3 (centres undefined) | NCI-H23 lung | NO |
| FC(F)(F)c1ccc(/C=N/Nc2nnc3n2N=C(c2ccc(Cl)cc2)CS3)cc1 | NCI-H23 lung | NO |

I would be grateful if you could indicate the recorded call for COc1cc(/C=C/c2ccc3c(Br)cc(Br)c(O)c3n2)ccc1O .
NO

I would be grateful if you could indicate the recorded call for O=C(NC1CC1)c1ccc(-c2nc3ccc4[nH]ncc4c3c3c2CCCC3)cc1 .
NO

I would be grateful if you could indicate the recorded call for CN(C)CCOc1nc2c3ccncc3cc(-c3cccc(Cl)c3)c2c2cnccc12 .
NO

I would be grateful if you could indicate the recorded call for Cc1n(Cc2ccc3ccccc3n2)cc[n+]1Cc1ccc2ccccc2c1 .
YES

I would be grateful if you could indicate the recorded call for CCOC(=O)c1c(NC(=O)c2ccccc2)sc2c(O)c(CN(CC)CC)ccc12 .
YES

I would be grateful if you could indicate the recorded call for COc1ccc2cc(-c3nc(C)c(C(C)=O)c(-c4ccc(C)cc4)n3)ccc2c1 .
NO

I would be grateful if you could indicate the recorded call for Fc1cc(-c2nnc3sc(-c4ccc(Cl)cc4)nn23)c(Cl)cc1Cl .
NO
